tested on: T-47D breast; assay: NCI tumour cell line growth inhibition, 48 h
Listing of recorded TGI by entry.

Example entries begin here.
CC[C@@H]1C(=O)OC[C@@H]1Cc1cncn1C ... > 100 µM
CC(=O)[C@@H]1C/C(=C\OCc2ccccc2)O[C@H]1C ... > 100 µM

Query: TGI; subject: O=C1CCCCCCCCCCC1CCCCCBr (configuration not stated) 73.9 µM

====

tested on: UACC-62 melanoma; assay: NCI tumour cell line growth inhibition, 48 h; in the data active = GI50 below about 0.43 µM; inactive = the rest
Assign a class; possible classes are class 1 for active, class 0 for inactive

These recorded examples may help you get a feel for the data.
COc1ccc(-c2oc(=O)ccc2-c2cc(OC)c(OC)c(OC)c2)cc1O ... class 0
COC(=O)CC[C@]1(C)O[C@H]2[C@H]([C@@H](C)CCCC(C)=O)OC(=O)[C@@H]2C[C@H]1O ... class 0

Pending molecule:
Called result for CCN(Cc1ccccc1)c1ccc(CO)c(Cl)c1 class 1
